test system: THRa homodimer (NR concentration 90 nM); experiment: PBM binding z-score (relative to random genomic background probes); higher = stronger binding; sequences stand for … in GC…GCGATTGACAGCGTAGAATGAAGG
MEASURED_ENDPOINT: PBM binding z-score
I'd appreciate a reply containing only the number, no unit.

[in] Please respond with reported PBM binding z-score (system THRa homodimer (NR concentration 90 nM)) for "TGAAGGAGGTTAAAGATCAGGGAACGTGGCGTCG" .
[out] 0.214

[in] Give PBM binding z-score for "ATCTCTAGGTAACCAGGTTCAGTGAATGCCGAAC" tested on THRa homodimer (NR concentration 90 nM).
[out] 0.822

[in] Provide PBM binding z-score, system THRa homodimer (NR concentration 90 nM), entry "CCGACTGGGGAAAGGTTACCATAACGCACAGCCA"
[out] -0.224

[in] System THRa homodimer (NR concentration 90 nM). Read-out PBM binding z-score. Item "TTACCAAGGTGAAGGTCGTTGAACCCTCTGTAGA" . Report value.
[out] 1

[in] System THRa homodimer (NR concentration 90 nM). Read-out PBM binding z-score. Item "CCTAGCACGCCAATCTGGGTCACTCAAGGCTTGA" . Report value.
[out] 0.789

[in] Would you please give the reported PBM binding z-score of "CCTAGCAGGCCAGGGTCACTCATGCATTTCGCTT" with THRa homodimer (NR concentration 90 nM)?
[out] 1.04

[in] Answer briefly: PBM binding z-score recorded on THRa homodimer (NR concentration 90 nM) for "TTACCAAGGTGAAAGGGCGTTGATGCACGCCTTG"
[out] 0.369

[in] Provide measured PBM binding z-score on THRa homodimer (NR concentration 90 nM) for "TAGCCTAGGTCATTCAGGGGCCAGTATTGAAAGC" please.
[out] 0.833

[in] Report value only: PBM binding z-score, THRa homodimer (NR concentration 90 nM), "CGTCCAACGTCAAAGGTCAGTGAAGAGATGACGG"
[out] 0.106

[in] Give PBM binding z-score; test system THRa homodimer (NR concentration 90 nM); sequence "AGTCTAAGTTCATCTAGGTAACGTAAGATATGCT"
[out] 0.767

[in] Please respond with reported PBM binding z-score (system THRa homodimer (NR concentration 90 nM)) for "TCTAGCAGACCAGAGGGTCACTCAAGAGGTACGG" .
[out] -0.387

[in] Look up and report PBM binding z-score, with THRa homodimer (NR concentration 90 nM) as system, for "ACTAGTTGGTCAGCTGAAGTCACACACAATTCGG"
[out] -0.0517

---

test system: RARb homodimer (NR concentration 270 nM); assay: PBM binding z-score (relative to random genomic background probes); higher = stronger binding; sequences stand for … in GC…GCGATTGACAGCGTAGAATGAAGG
MEASURED_ENDPOINT: PBM binding z-score
Enter the number alone.

[in] Specify measured PBM binding z-score for "TCATATAGGTAAAGGTGTAAGTCGAACGATATGA" .
[out] -0.352

[in] Report PBM binding z-score for "CCAGACCGGTGAGAAGGTAACTCAGCCTCGATTA"
[out] 0.199

[in] Write down PBM binding z-score measured for item "GCGACTGGGGCATCAGCAGGTTACCATGACTTAA"
[out] 0.92

[in] Entry "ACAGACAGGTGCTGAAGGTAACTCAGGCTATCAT" needs its PBM binding z-score filled in; supply it.
[out] -0.511

[in] State its PBM binding z-score: "CGAACTAGGTCATCCAGGACTGTGAATACATTGA"
[out] 2.93

[in] Report PBM binding z-score for "AATACAGGGGCATCGTAGGCCAGAGTACGCACAG"
[out] 1.13

[in] Read the entry "TCATATAGGTAAAGGTGGAAGTCGAACGATATGA" and write its reported PBM binding z-score.
[out] 0.0636

[in] Specify PBM binding z-score for "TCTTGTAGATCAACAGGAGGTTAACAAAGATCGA" and stop.
[out] 0.875

[in] Report measured PBM binding z-score; entry is "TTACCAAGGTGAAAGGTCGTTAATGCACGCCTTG"
[out] 2.23

[in] Please list PBM binding z-score recorded for the sequence "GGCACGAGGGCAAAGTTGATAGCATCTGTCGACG"
[out] 1.26

[in] Output measured PBM binding z-score for this item: "CAAACTAGGTCAAAGAGGTCAAAGTCCGTGCGTA"
[out] 5.27

[in] Read off the recorded PBM binding z-score for "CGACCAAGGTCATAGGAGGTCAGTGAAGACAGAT"
[out] 5.12

[in] Specify measured PBM binding z-score for "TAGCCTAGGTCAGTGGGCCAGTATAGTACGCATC" .
[out] 2.1

[in] Output PBM binding z-score of "TCTAGCAGGCCAGAGGGTCAGTCAAGAGGTACGG"
[out] 2.16

[in] Answer with reported PBM binding z-score of "ATCGAAAGGTCGAAGGTGAGTATCCCCACCCGAA"
[out] 2.43

[in] Output measured PBM binding z-score for this item: "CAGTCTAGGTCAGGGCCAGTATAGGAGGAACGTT"
[out] 2.84

[in] Quickly give me recorded PBM binding z-score for "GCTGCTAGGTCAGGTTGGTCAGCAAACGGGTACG"
[out] 2.84

[in] Provide one value: measured PBM binding z-score of "ATATGTAGGTTAGCTTGGGTCATTCAGACTAGGC"
[out] 2.7

[in] Look up PBM binding z-score of "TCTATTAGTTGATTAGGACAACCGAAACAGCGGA" and report it.
[out] 0.549

[in] Indicate the recorded PBM binding z-score value for this sequence: "ACAGACAGGTGATGAAGGTCACTCAGGCTATCAT"
[out] 3.75

[in] Name the recorded PBM binding z-score of the item "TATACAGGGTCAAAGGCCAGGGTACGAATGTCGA" in your answer.
[out] 3.71

[in] Give a short answer stating reported PBM binding z-score for "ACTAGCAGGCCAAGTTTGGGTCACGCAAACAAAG" .
[out] 2.72

[in] Recall and state the measured PBM binding z-score for "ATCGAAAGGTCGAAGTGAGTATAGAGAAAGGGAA" .
[out] 1.86

[in] Provide one value: measured PBM binding z-score of "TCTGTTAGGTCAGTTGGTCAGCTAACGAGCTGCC"
[out] 3.01

[in] Look up and state reported PBM binding z-score for "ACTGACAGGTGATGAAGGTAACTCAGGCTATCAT"
[out] -0.0164

[in] Return reported PBM binding z-score. Input sequence: "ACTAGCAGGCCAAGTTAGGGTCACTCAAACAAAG"
[out] 3.53

---

Assignment: determine reported PBM binding z-score for the given sequences.
system: PXR:RXRa (NR concentration 270 nM, RXRa partner concentration 90 nM); assay: PBM binding z-score (relative to random genomic background probes); higher = stronger binding; sequences stand for … in GC…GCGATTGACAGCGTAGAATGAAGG
The answer should be a number; do not append a unit.

[in] Give PBM binding z-score; test system PXR:RXRa (NR concentration 270 nM, RXRa partner concentration 90 nM); sequence "GCATATAGGTAATACAAGGTGAACGTCCGATTGT"
[out] 0.252

[in] Please respond with reported PBM binding z-score (system PXR:RXRa (NR concentration 270 nM, RXRa partner concentration 90 nM)) for "AGAATGAGGTTATTAAGATCAGGAAATTGCGGTC" .
[out] 1.3

[in] Write PBM binding z-score of "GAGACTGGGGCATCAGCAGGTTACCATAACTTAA" ; system used: PXR:RXRa (NR concentration 270 nM, RXRa partner concentration 90 nM)
[out] 0.391

[in] Write down measured PBM binding z-score (PXR:RXRa (NR concentration 270 nM, RXRa partner concentration 90 nM)) for this sequence. "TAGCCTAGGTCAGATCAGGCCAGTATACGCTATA"
[out] 2.07

[in] Specify PBM binding z-score for "AGAACGAAGGCAATGAGTTGATAGCACGGGTGGC" , system PXR:RXRa (NR concentration 270 nM, RXRa partner concentration 90 nM).
[out] -0.512

[in] # lookup: PXR:RXRa (NR concentration 270 nM, RXRa partner concentration 90 nM) PBM binding z-score, key = "ATCTCTTGGTAAAGTTCAGTGAAAGATCGATAGA"
[out] 2.41

---

Kindly state PBM binding z-score for each of the entries shown.
tested on: RARb homodimer (NR concentration 270 nM); test: PBM binding z-score (relative to random genomic background probes); higher = stronger binding; sequences stand for … in GC…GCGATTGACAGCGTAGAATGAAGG
Just the number.

[in] Return value of PBM binding z-score for input "CAAACTAGGTCACGAAAGGTCTAAGTCGAATGAC" , no commentary.
[out] 3.98

[in] Output PBM binding z-score of "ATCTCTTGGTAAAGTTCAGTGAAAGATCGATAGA"
[out] 2.41

[in] Report PBM binding z-score, nothing else, for this sequence: "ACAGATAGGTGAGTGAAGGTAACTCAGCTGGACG"
[out] 0.126

[in] # return recorded PBM binding z-score for input "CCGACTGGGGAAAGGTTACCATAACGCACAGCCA"
[out] 1.86

[in] Return PBM binding z-score for the following sequence: "CGTCCAAGGTCAATGCTAGTTCAGTGAAAGCATT"
[out] 4.24

[in] In one line, give reported PBM binding z-score of the entry "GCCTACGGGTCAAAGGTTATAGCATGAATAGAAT" .
[out] 3.15
